tested on: DU-145 prostate; assay: NCI-60 one-dose screen, 48 h (100 = growth as untreated, 0 = no growth, -100 = all killed); conditions: 10 µM
Compounds without any hit were thinned out: in the full panel of roughly 83,000, 20% have a hit.
OBSERVABLE: growth (%)
State the answer as a number, implicitly in %.

Worked examples, 5 compounds total:
[
  {
    "COMPOUND": "O=C1C=C(Nc2ccc([N+](=O)[O-])cc2)c2ccccc2C1=O",
    "TESTED ON": "DU-145 prostate",
    "OBSERVABLE": "growth",
    "OUTPUT UNIT": "%",
    "REPORTED VALUE": 68.9
  },
  {
    "COMPOUND": "Nc1ccc(NC(=O)c2cccc(N)c2)cc1",
    "TESTED ON": "DU-145 prostate",
    "OBSERVABLE": "growth",
    "OUTPUT UNIT": "%",
    "REPORTED VALUE": 108
  },
  {
    "COMPOUND": "O=C(O)/C=C/C(=O)NCc1ccccc1",
    "TESTED ON": "DU-145 prostate",
    "OBSERVABLE": "growth",
    "OUTPUT UNIT": "%",
    "REPORTED VALUE": 121
  },
  {
    "COMPOUND": "O=C(CCl)N1CCN(C/C=C/c2ccccc2)CC1",
    "TESTED ON": "DU-145 prostate",
    "OBSERVABLE": "growth",
    "OUTPUT UNIT": "%",
    "REPORTED VALUE": 110
  },
  {
    "COMPOUND": "Cc1ccc(Cl)cc1N1C(=O)CC(Sc2ccccc2N)C1=O (stereo unspecified)",
    "TESTED ON": "DU-145 prostate",
    "OBSERVABLE": "growth",
    "OUTPUT UNIT": "%",
    "REPORTED VALUE": 123
  }
]

Please examine the following record next.
Incoming: Kindly state the measured growth obtained for CC(C(=O)O)(C1CCCCC1)C1(O)CCCCC1 (stereo unspecified) with DU-145 prostate.
Outgoing: 108

---

The reader will find reported growth values listed item by item below.
test system: KM12 colon; experiment: NCI-60 one-dose screen, 48 h (100 = growth as untreated, 0 = no growth, -100 = all killed); conditions: 10 µM
About 83,000 compounds went through this panel and 20% of them were active in at least one assay; those are over-represented in the sample as a whole.
Response body: numeric value in %, unit text excluded.

Incoming: Hi! What's the reported growth for CNC(=S)NC(C)(C)C on KM12 colon?
Outgoing: 106

Incoming: // fetch KM12 colon growth for CC(=O)Cc1cc(-c2cc(CC(C)=O)[nH]n2)n[nH]1
Outgoing: 105

Incoming: Missing value: growth, KM12 colon, entry O=C1Cc2ccccc2C(=O)O1 . Fill in?
Outgoing: 115

Incoming: Return growth measured with KM12 colon given this molecule: CCOC(=O)CSc1c([N+](=O)[O-])ncn1C
Outgoing: 96.2

Incoming: Please tell me: growth of Cc1cc(OCCO)cc(C)c1Cl , system KM12 colon?
Outgoing: 107

Incoming: Give growth (KM12 colon) of the following molecule: COc1ccc(C(=O)C(Br)C(Br)C(=O)O)cc1 (centres undefined)
Outgoing: 111

Incoming: Under KM12 colon: growth value of O=c1c2ccccc2c(Br)c(Br)c2ccccc12 ?
Outgoing: 105

Incoming: What is its growth for KM12 colon? Entry: CC1=C(/C=C/C(C)=C/C=C/C(C)=C/CO)C(C)(C)CCC1
Outgoing: 109

Incoming: Please state recorded growth (tested on KM12 colon) of CCCCC1C(=O)N(c2ccccc2)N(c2ccccc2)C1=O
Outgoing: 109

---

tested on: TK-10 renal; assay: NCI-60 one-dose screen, 48 h (100 = growth as untreated, 0 = no growth, -100 = all killed); settings: 10 µM unless noted
About 83,000 compounds went through this panel and 20% of them were active in at least one assay; those are over-represented in the sample as a whole.
OBSERVABLE: growth (%)
Reply with just the number (in %).

Some compounds with recorded growth:
[
  {
    "COMPOUND": "Cc1ccc(/C=C2\\SC(=S)N(c3ccc(F)cc3)C2=O)o1",
    "TESTED ON": "TK-10 renal",
    "OUTPUT UNIT": "%",
    "REPORTED VALUE": 102
  },
  {
    "COMPOUND": "O=C(CCl)N1CCN(C/C=C/c2ccccc2)CC1",
    "TESTED ON": "TK-10 renal",
    "OUTPUT UNIT": "%",
    "REPORTED VALUE": 85.6
  },
  {
    "COMPOUND": "O=[N+]([O-])c1ccc(Sc2ccncn2)c([N+](=O)[O-])c1",
    "TESTED ON": "TK-10 renal",
    "OUTPUT UNIT": "%",
    "REPORTED VALUE": 34.3
  },
  {
    "COMPOUND": "O=[N+]([O-])c1cccc(N=Nc2ccc(O)cc2O)c1",
    "TESTED ON": "TK-10 renal",
    "OUTPUT UNIT": "%",
    "REPORTED VALUE": 65.7
  }
]

Incoming: Recorded growth for Cc1cc(C(O)(c2ccc(Nc3ccccc3)cc2)c2ccc(Nc3ccc(S(=O)(=O)O)cc3)cc2)ccc1N (configuration not stated) , please?
Outgoing: 7.3

Incoming: I have this compound here, O=C(NN=C1CCCCC1)C(=O)NN=C1CCCCC1 , and I need its recorded growth.
Outgoing: 99

Incoming: Looking for the measured growth of CCOC(=O)C(=O)C=P(c1ccccc1)(c1ccccc1)c1ccccc1 , can you help?
Outgoing: 99

---

Reported growth values for a set of compounds
system: UACC-257 melanoma; assay: NCI-60 one-dose screen, 48 h (100 = growth as untreated, 0 = no growth, -100 = all killed); details: 10 µM
The panel holds about 83,000 compounds, 20% with a hit somewhere; the sample as a whole holds those more often.
Express the result in % but write the number alone.

Incoming: Can you look up the measured growth of CN(C)CCN(Cc1ccccc1)c1ccccc1 for me?
Outgoing: 126

---

Tested on: OVCAR-5 ovarian
Experiment: NCI-60 one-dose screen, 48 h (100 = growth as untreated, 0 = no growth, -100 = all killed)
Conditions: 10 µM
Protocol: Growth inhibition of the OVCAR-5 human tumor cell line is measured as a screen for anti-cancer activity. Cells are grown in 96 well plates and exposed to the test compound for 48 hours. Compounds are tested at a single concentration, which is 10^-5 M for most compounds. The reported endpoint is percent growth (GI% or GIPRCNT), where numbers from 0 - 100% represent growth inhibition, and numbers from -100% - 0 represent cell death. For example, a value of 40 represents 60% growth inhibition. […]
The panel holds about 83,000 compounds, 20% with a hit somewhere; the sample as a whole holds those more often.
Below, each of the molecules is paired with its reported growth value.
# output: bare number, implied unit %

Example molecules with recorded growth:
[
  {
    "SMILES TEXT": "O=C(NC1CCCCC1)OCc1c(COC(=O)NC2CCCCC2)c(-c2ccc(Cl)c(Cl)c2)n2c1CCC2",
    "growth (%)": 19
  },
  {
    "SMILES TEXT": "Nc1ccc(CC(=O)O)c(N)c1",
    "growth (%)": 96.1
  },
  {
    "SMILES TEXT": "CCOC(=O)c1ccc(NC(=S)P(=O)(c2ccccc2)c2ccccc2)cc1",
    "growth (%)": 105
  },
  {
    "SMILES TEXT": "Oc1ccccc1O",
    "growth (%)": 106
  }
]

Incoming: // returns reported growth for input Cc1ccc(O)c(C(=O)c2ccccc2)c1
Outgoing: 96.3

---

system: SNB-19 CNS; experiment: NCI-60 one-dose screen, 48 h (100 = growth as untreated, 0 = no growth, -100 = all killed); conditions: 10 µM
This is part of a sample that, as a whole, favours compounds with a hit. Of some 83,000 tested, about 20% had one in any assay.
OBSERVABLE: growth (%)
Only the number, expressed in %, is required.

[
  {
    "COMPOUND": "O=C(CN1CCNCC1)N1CCOCC1",
    "OUTPUT UNIT": "%",
    "growth": 102
  },
  {
    "COMPOUND": "Cc1c(O)cnc2nn(-c3ccccc3)c(=N)n12",
    "OUTPUT UNIT": "%",
    "growth": 98.5
  },
  {
    "COMPOUND": "OC1CCCc2ccccc21 (stereo not given)",
    "OUTPUT UNIT": "%",
    "growth": 90.8
  },
  {
    "COMPOUND": "CCCCC(O)c1ccccc1 (stereo not given)",
    "OUTPUT UNIT": "%",
    "growth": 110
  },
  {
    "COMPOUND": "OCC1OC(OC2C(O)C(CO)OC2(CO)OC2OC(CO)C(O)C(O)C2O)C(O)C(O)C1O (stereo not given)",
    "OUTPUT UNIT": "%",
    "growth": 102
  },
  {
    "COMPOUND": "O=C(NCc1ccco1)Nc1c(Cl)cc(Cl)cc1Cl",
    "OUTPUT UNIT": "%",
    "growth": 103
  },
  {
    "COMPOUND": "CC(=O)Nc1cccc(Cl)c1C",
    "OUTPUT UNIT": "%",
    "growth": 107
  },
  {
    "COMPOUND": "COc1cccc(O)c1O",
    "OUTPUT UNIT": "%",
    "growth": 65.1
  },
  {
    "COMPOUND": "O=c1cc2oc3cc(O)c(O)cc3c(-c3ccccc3O)c-2cc1O",
    "OUTPUT UNIT": "%",
    "growth": 72.5
  }
]

Next item in the queue.
Incoming: Consider the compound CC(=O)OCCC(C)CCC=C(C)C (stereo not given) and give its measured growth.
Outgoing: 103
